The reported numbers originate from patent US20130184294A1.

biological target: Kv7.2/7.3 channels (Homo sapiens, UniProt O43525+O43526); construct: The entire construct for Kv7.2 and Kv7.3 was subcloned into the pIRESneo3 and pIREShygro3 expression vectors; assay: Kv7.2/3 channel opening activity, IonWorks planar patch-clamp of K-current at 0 mV; details: CHO-K1 cells expressing human Kv7.2/7.3; IonWorks Quattro, step from -80 mV to 0 mV, 7-point concentration curves
OBSERVED_PROPERTY: pEC50
// pEC50 here means minus log10 of the molar concentration (mol/L)

Below are worked cases with known answers.
CC[C@@H](C)Nc1nc2c(C)cccn2c(=O)c1NC(=O)CC(C)(C)C    6.77
CC(C)Nc1nc2n(c(=O)c1NC(=O)CC(C)(C)C)CCCC2C(F)(F)F (single isomer, unassigned) [Example 8a]    6.42
CC(C)Nc1nc2c(OC(C)(F)F)cccn2c(=O)c1NC(=O)CC(C)(C)C    6.43

Field pEC50 (entry "CC(C)(C)CC(=O)Nc1c(NC2CCC2)nc2c(C(F)(F)F)cccn2c1=O" ) reads 7.04

pEC50 recorded for this molecule, CC(C)Nc1nc2n(c(=O)c1NC(=O)CC(C)(C)C)CCCC2C(F)(F)F (single isomer, unassigned) [Example 8b] , is 6.39

Entry "Cc1cccn2c(=O)c(NC(=O)CC(C)(C)C)c(NC(C)C)nc12" , pEC50 reported as 6.35

molecule Cc1cccn2c(=O)c(NC(=O)CC(C)(C)C)c(NC(C)C3CC3)nc12 (single isomer, unassigned) [Example 2a] , pEC50 observed: 6.64

// pEC50 value for Cc1cccn2c(=O)c(NC(=O)CC(C)(C)C)c(NC(C)C3CC3)nc12 (single isomer, unassigned) [Example 2b] : 6.89
